- Test Method Notes: qHTS Assay for Inhibitors of Hepatitis C Virus (HCV)
- Run Parameters: Huh7.5.1 HCVcc-Cre infection, luciferase reporter, 44 h; series mostly up to 41.8 µM
About 12,000 (3.5%) of roughly 340,000 compounds were called active. Inconclusive results (about 18%) are left out. The call rests on the fitted dose curve; in most records, active means well fitted inhibition curve with a large enough effect; inconclusive means small, poorly fitted or top-dose-only effect, or another doubt; inactive means no such curve, though single readings can be large or run the other way. Shown is part of a subset that was picked to be rich in actives.
Your response should consist of one outcome taken from active, inactive

Write down the call the test reported for this molecule. Item: `COc1cccc(CNc2nc(C(F)(F)F)nc3ccccc23)c1` active

Query: recorded result category for `CCOC(=O)c1nc(Nc2ccc(C(=O)OC)cc2)c2ccccc2n1` in this test inactive

Dear colleague, could you share the recorded outcome for `COc1ccc(CNc2ncnc3ccccc23)cc1` when you have a moment? active

Assay outcome for `Cc1cccc(-c2nc(Nc3ccc(O)cc3)c3ccccc3n2)c1` : what was it? active

Field: outcome | Entry: `COc1ccc(Nc2nc(-c3cccnc3)nc3ccccc23)cn1` active

Recorded test call requested for `Oc1ccc(-c2nnc(Nc3ccccc3)c3ccccc23)cc1` inactive

# outcome recorded in this test, key = `O=C(NCc1ccncc1)C(=O)NCc1ccco1` inactive

Which outcome was assigned to CC(=O)Nc1ccc(NC(=O)C(C)OC(=O)C2CC(=O)N(CCc3ccccc3)C2)cc1 (configuration not stated) in this test? inactive

Which outcome did this test record for the molecule `CCc1nc2ccccc2c(C(=O)NCc2ccc(OC)cc2)c1C` ? inactive

Can you look up the reported call for `COc1ccc(CNc2nccs2)cc1` for me? inactive

Each molecule tested received a call. Report the one for `S=c1nc2ccccc2c2nc(-c3cccnc3)[nH]n12` . inactive

How was CC(C)(C)c1nc(NCC2CCCO2)c2nnn(Cc3ccccc3)c2n1 (configuration not stated) classified in this test? inactive

###

- Test Method Notes: qHTS Assay for Inhibitors of Hepatitis C Virus (HCV)
- Run Parameters: Huh7.5.1 HCVcc-Cre infection, luciferase reporter, 44 h; series mostly up to 41.8 µM
- Source text: Hepatitis C virus (HCV) infects about 200 million people in the world. Many infected people progress to chronic liver disease including cirrhosis with a risk of developing liver cancer. To date, there is no effective vaccine for hepatitis C. Current therapy based on interferon is only effective in about half of the patients and is associated with significant adverse effects. The fraction of people with HCV who can complete a successful treatment is estimated to be no more than 10 percent. […]
Among all 340,000 compounds or so, about 12,000 (3.5%) were called active. Roughly 18% stayed inconclusive and do not appear here. The call rests on the fitted dose curve; in most records, active means well fitted inhibition curve with a large enough effect; inconclusive means small, poorly fitted or top-dose-only effect, or another doubt; inactive means no such curve, though single readings can be large or run the other way. What follows is part of a selection rich in actives, with near analogues and random picks from the rest.
Give your call using only these classes: active, inactive

Outcome? `Oc1c(CN2CCN(c3ccc(F)cc3)CC2)cc(Cl)c2cccnc12` active

Identify the outcome logged in this assay for the compound shown: `COc1ccc2c(CC(=O)NNC(=O)c3ccccc3F)coc2c1` inactive

Recorded call for `O=C(CSc1ccccn1)N1CCN(S(=O)(=O)c2ccc(Cl)cc2)CC1` ? inactive

Returns: the outcome recorded for `COc1ccc(S(=O)(=O)N2CCOC23CCN(S(=O)(=O)c2ccc([N+](=O)[O-])cc2)CC3)cc1` in this assay. inactive

Recorded test outcome, item `COc1cc(OC)c(C(=O)NNC(=O)c2ccc(NS(=O)(=O)c3cccs3)cc2)cc1OC` inactive

Recorded call for `O=Cc1cn(Cc2ccccc2)nc1-c1cccnc1` ? inactive

Could you check what this test reported for `Clc1ccc(CN2CCN(/N=C/c3cccnc3)CC2)cc1` ? inactive

GET /call?item= `c1ccc2cc(CCCc3cc4ccccc4cn3)ncc2c1` returns the recorded outcome of this test. inactive

What is the recorded call for this compound in the test? `Nc1cc2c(cc1Br)-c1ccc(F)cc1C2=O` active

Hi, do you know how COc1ccc(N2CCN(S(=O)(=O)c3ccc4c(c3)NC(=O)C(C)C(=O)N4)CC2)cc1 (centres undefined) came out in this test? inactive

Name the outcome recorded for `Cc1ccc(NC(=O)CCN2C(=O)c3ccccc3C2=O)cc1C` in the assay. inactive

Please indicate how the test categorized `N#Cc1ccccc1S(=O)(=O)N1CCN(C(=O)c2cc(-c3ccccc3)nn2-c2ccccc2)CC1` . active

// outcome(item) with item = `CN1CCN(c2ccc(NC(=O)c3ccc4c(c3)OCCO4)cc2Cl)CC1` inactive

Dear all, I need the recorded test outcome for `CC(C)Cn1c(SCC(=O)Nc2ccc(Cl)cc2F)nc(O)cc1=O` , thank you. inactive

Test call for this compound, please: `CC1=CC(=Cc2sc3ccccc3[n+]2C)C=C(C)O1` active

Test call for this compound, please: `N#Cc1ccccc1S(=O)(=O)N1CCN(Cc2c(O)ccc3ccccc23)CC1` inactive

Look up the recorded call for `COc1ccc(OCc2cccc(C(=O)N3CCCC3)c2)cc1` in this test. inactive

So what was the verdict on `COc1ccc2nc(NC(=O)c3ccc(Br)s3)sc2c1` in this test? inactive

Which outcome did this test record for the compound `Cc1n[nH]c(=O)c2c(NC(=O)CSc3ccccc3F)oc(C)c12` ? inactive

Outcome logged for `O=C(NCc1ccccc1Cl)C1CCN(S(=O)(=O)N2CCOCC2)CC1` in this assay: inactive

Tell me the recorded outcome of this test for `O=C(c1cn(-c2ccccc2)nc1-c1cccnc1)N1CCN(S(=O)(=O)c2ccccc2F)CC1` . inactive

Which result was noted for this compound in the test: `Oc1ccc(CN2CCN(c3ncccn3)CC2)cc1` inactive

What was the test verdict on `COc1ccc(CNC(=O)C2CCN(S(=O)(=O)N3CCOCC3)CC2)cc1` ? inactive

Returns: the outcome recorded for `CCCCNC(=O)Cn1nc(C)c(S(=O)(=O)N2CCOCC2)c1C` in this assay. inactive

Outcome? `O=C1/C(=C\c2cccnc2)CN(Cc2ccccc2)C/C1=C\c1cccnc1` active

For this compound, state the assay outcome: `CC(C)c1cc(C(N)=O)c(NC(=O)c2cccc(COc3ccc(Br)cc3)c2)s1` active

Query: recorded result category for COCCOC(=O)c1[nH]c2c(c1C)C(=O)CC(c1ccc(OC)cc1)C2 (centres undefined) in this test inactive

Status in this test for `C[C@H](NC(=O)c1[nH]cnc1C(=O)Nc1nccs1)c1ccccc1` ? inactive

What was the test verdict on `Cc1ccc(OCCNC(=O)CNC(=O)c2ccc(C)c(C)c2)cc1` ? inactive

I would be grateful if you could indicate the recorded call for `N=c1n(CCc2ccccc2)c2ccccc2n1Cc1ccccc1F` . active

Call for entry `Oc1cc2c(cc1CN1CCN(c3ccccc3)CC1)OCO2` : inactive

Recorded test outcome, item CC(=O)NC(C)c1nc2ccccc2n1Cc1ccccc1F (centres undefined) inactive

# outcome recorded in this test, key = `O=C(Nc1ccon1)c1cccc(Cl)c1` inactive

I'd appreciate the recorded outcome for `COCC(=O)N1CCc2ccc(NC(=O)c3ccccc3Cl)cc2C1` from this test. inactive

Outcome logged for `COc1ccc(S(=O)(=O)N2CCN(c3cnccn3)CC2)cc1` in this assay: inactive

# lookup: test call for `CC(C)(C)c1nnc2sc(SCC(O)=C(C#N)c3nc4ccccc4[nH]3)nn2c1=O` inactive

What did this assay record as the result for CN1C(C(=O)NCC2CC2)CC2Cn3c(nc4ccccc43)C21 (centres undefined) ? inactive

# fetch the recorded call for `COc1ccc2nc(Nc3nc4ccc(NC(C)=O)cc4s3)sc2c1` here active

Which outcome was entered for the compound `C[C@@H]1ON(C)[C@H]2C[C@H]3c4cc(N5CCN(C)CC5)ccc4CCN3C(=O)[C@@H]12` in this test? inactive

So what was the verdict on `CN1CCN(c2ccc(NC(=O)c3cc(Cl)c4c(c3)OCCO4)cc2)CC1` in this test? active

What did the test return for CCOC(=O)c1[nH]c2c(c1-c1ccccc1)C(=O)CC(c1ccc(Cl)cc1)C2 (centres undefined) ? inactive

What did this assay record as the result for `COc1ccc(NC(=O)c2cccc(Cl)c2)c[n+]1[O-]` ? active

Would you mind telling me which call this test gave `COc1ccc(/C=C/C(=O)OCC(=O)N2CCN(S(=O)(=O)c3ccc(C)cc3C)CC2)cc1OC` ? inactive

# fetch the recorded call for `CCCCCCCCNS(=O)(=O)CCNC1CCCCC1` here inactive
